Data provenance is patent US5885968A.

Biological target: Fuc/Gal receptor on the hepatic Kupffer cell (Rattus norvegicus, UniProt P10716)
Construct: Kupffer cells in DMEM medium, supplemented with 2% BSA and 2 mM CaCl2; endogenous in cells; host or cells: primary Kupffer cells of liver
Sequence (P10716 whole entry): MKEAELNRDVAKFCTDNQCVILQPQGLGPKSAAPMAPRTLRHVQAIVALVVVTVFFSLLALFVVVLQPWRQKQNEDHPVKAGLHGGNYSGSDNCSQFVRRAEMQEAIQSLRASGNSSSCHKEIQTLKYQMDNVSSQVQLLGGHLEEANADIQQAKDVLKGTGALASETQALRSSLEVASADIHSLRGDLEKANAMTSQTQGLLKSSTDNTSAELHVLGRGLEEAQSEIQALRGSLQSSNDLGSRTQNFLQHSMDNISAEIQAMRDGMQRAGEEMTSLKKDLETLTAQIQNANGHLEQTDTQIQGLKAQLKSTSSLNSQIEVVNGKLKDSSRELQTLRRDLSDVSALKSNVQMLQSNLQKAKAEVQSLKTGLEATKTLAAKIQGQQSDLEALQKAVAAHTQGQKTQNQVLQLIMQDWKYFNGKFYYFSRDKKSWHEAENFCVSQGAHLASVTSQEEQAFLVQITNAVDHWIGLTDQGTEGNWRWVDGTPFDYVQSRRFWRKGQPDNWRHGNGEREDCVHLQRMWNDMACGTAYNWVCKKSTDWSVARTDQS
Experiment: Inhibition of 125I-Lac-LDL binding to Kupffer cells
Settings: 4° C., 2 h, read-out: Fuc-Gal receptor pKi (converted)
readout.label: Ki

# example entries with known answers
compound	Ki
COC(=O)CCCCC(=O)NCC(=O)NC(COCOCCO[C@@H]1O[C@H](CO)[C@H](O)[C@H](O)[C@H]1O)(COCOCCO[C@@H]1O[C@H](CO)[C@H](O)[C@H](O)[C@H]1O)COCOCCO[C@@H]1O[C@H](CO)[C@H](O)[C@H](O)[C@H]1O [Compound 15b]	> 100 µM
COC(=O)CCCCC(=O)NCC(=O)NC(COCOCCOCCO[C@@H]1O[C@H](CO)[C@H](O)[C@H](O)[C@H]1O)(COCOCCOCCO[C@@H]1O[C@H](CO)[C@H](O)[C@H](O)[C@H]1O)COCOCCOCCO[C@@H]1O[C@H](CO)[C@H](O)[C@H](O)[C@H]1O [Compound 15d]	> 100 µM
COC(=O)CCCCC(=O)NCC(=O)NC(CO[C@@H]1O[C@H](CO)[C@H](O)[C@H](O)[C@H]1O)(CO[C@@H]1O[C@H](CO)[C@H](O)[C@H](O)[C@H]1O)CO[C@@H]1O[C@H](CO)[C@H](O)[C@H](O)[C@H]1O [Compound 15a]	> 31.6 µM

Problem: Sample COC(=O)CCCCC(=O)NCC(=O)NC(COCOCCCO[C@@H]1O[C@H](CO)[C@H](O)[C@H](O)[C@H]1O)(COCOCCCO[C@@H]1O[C@H](CO)[C@H](O)[C@H](O)[C@H]1O)COCOCCCO[C@@H]1O[C@H](CO)[C@H](O)[C@H](O)[C@H]1O [Compound 15c] — what was its Ki?
Solution: > 100 µM

Problem: COC(=O)CCCCC(=O)NCC(=O)NC(COCOCCOCCOCCOCCO[C@@H]1O[C@H](CO)[C@H](O)[C@H](O)[C@H]1O)(COCOCCOCCOCCOCCO[C@@H]1O[C@H](CO)[C@H](O)[C@H](O)[C@H]1O)COCOCCOCCOCCOCCO[C@@H]1O[C@H](CO)[C@H](O)[C@H](O)[C@H]1O [Compound 15e] ?
Solution: > 100 µM
